# Tested on: K4 kissing-loop RNA reporter;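 also: bound reporter read as fluorescence of individual clusters on recovered sequencing chips by microscopy, with normalized cluster intensities fitted with a binding model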
# test: apparent KD of K4 kissing-loop reporter; higher = weaker reporter binding
# applied-conditions: Eterna round: R107; input ligand: tryptophan 2.4 mM
Decision: apparent KD of K4 kissing-loop reporter >= 300 nM yields condition met, all other cases yield condition not met.

>>> discrete_label("AACUCUCAGGCACCCGAGUGAUGUUCGGGCCGAGGACCGGUACGGCCGCCACUCGGGCCUGAGAGAGGUUAUCAAAGAUAGCCAA [Omei KL Tryp A SS A v1]")
"condition not met"

Prompt: Confirm if apparent KD of K4 kissing-loop reporter reported for the sequence GGGCCUAUUGAUGCUGGAGUAAUUCUGGAAGGAGCGCUCAAAGGAGCAGGUAGGUCGCCAGUAUACAAGGGCAGUGAUGUUGCCC [Entimalati] is 300 nM or above.
Response: condition not met

Prompt: Confirm if apparent KD of K4 kissing-loop reporter reported for the sequence GCAGUGAUGUUGCGGAUGUACAGUGGAGUGCGAGGACCGGUACGGCCGCCACUCGUACAGAACAAGCUAAUACAUCGAUAGGUGA [XI] is 300 nM or above.
Response: condition met

Prompt: Confirm if apparent KD of K4 kissing-loop reporter reported for the sequence AAGUGUGUGGCGGCCGCCACUAGAAUCCAGUGAUGUUGGAGUUAUCAAAUAAAUGAUAAUCAACAUAGGACCGGGCCAUAUAGAA [Same State - Tryptophan B (Freestyle 4)] is 300 nM or above.
Response: condition met

Prompt: Confirm if apparent KD of K4 kissing-loop reporter reported for the sequence GUUUGGCUCCGAAGACGGCAGUGGGAAAUAUAGGAUAUCUAGAAAUAGAGAAGGAUACUAGUGAUGUUAGUAUCGGAUAAAACAA is 300 nM or above.
Response: condition not met

Prompt: Confirm if apparent KD of K4 kissing-loop reporter reported for the sequence AAGCAGUCAGAGAGUGAUGUUCUCAAAUAACGAGGACCGGUACGGCCGCCACUCGAAGACUGCAAGUCCUACGAAAAGUAGGACA [Omei inspired 9] is 300 nM or above.
Response: condition not met

Prompt: Confirm if apparent KD of K4 kissing-loop reporter reported for the sequence CAACUACCCGGAAGGAGCGCGGGUGUAAAUCAAAGGGCUUGAGUGAUGUUCAAGCGGAACCCGCAGGUAGGUCGCCGGGAAGCCC [Quaneson] is 300 nM or above.
Response: condition not met

Prompt: Confirm if apparent KD of K4 kissing-loop reporter reported for the sequence AAUAUAGUGAUGUUAUAUAAGAAGGAGUUACGAGGACCGGUACGGCCGCCACUCGAAACGAGUGAGGGUUUGGGAGAUUGGGCCC [SSTryptA.J] is 300 nM or above.
Response: condition met

All figures here come from the supplement of paper PMC9170038.
